# Target of assay: UniProtKB P09958
# Sequence (P09958 108-794): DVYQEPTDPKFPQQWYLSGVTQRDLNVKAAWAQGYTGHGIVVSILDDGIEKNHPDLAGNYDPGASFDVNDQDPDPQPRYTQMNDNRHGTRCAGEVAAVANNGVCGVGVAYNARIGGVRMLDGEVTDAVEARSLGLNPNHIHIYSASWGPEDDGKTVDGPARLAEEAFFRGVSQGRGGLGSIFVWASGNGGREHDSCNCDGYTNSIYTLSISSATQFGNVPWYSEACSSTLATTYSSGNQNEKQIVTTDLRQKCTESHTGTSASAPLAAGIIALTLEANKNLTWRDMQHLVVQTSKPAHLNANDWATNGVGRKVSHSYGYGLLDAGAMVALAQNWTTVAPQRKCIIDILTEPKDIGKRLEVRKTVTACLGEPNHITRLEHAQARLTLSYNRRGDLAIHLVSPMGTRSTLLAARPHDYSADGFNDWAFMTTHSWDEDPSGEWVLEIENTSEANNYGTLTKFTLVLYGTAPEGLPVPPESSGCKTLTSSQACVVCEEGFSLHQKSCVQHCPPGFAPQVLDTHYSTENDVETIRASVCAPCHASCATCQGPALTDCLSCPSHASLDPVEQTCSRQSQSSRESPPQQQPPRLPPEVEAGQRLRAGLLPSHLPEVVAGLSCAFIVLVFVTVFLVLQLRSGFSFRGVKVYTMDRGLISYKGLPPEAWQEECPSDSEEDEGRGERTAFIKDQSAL
Residues, ends and D or L forms follow the SMILES beside them.
Assay metric: pKi
Scale: negative log10 of molar concentration, which is what pKi denotes.

Reported pKi ( CCCCCCCCCCCCCCCCNC(=O)[C@H](CCCCN)NC(=O)[C@H](C)NC(=O)[C@H](C)NC(=O)[C@H](CCCCN)NC(=O)CCCCCCCCCCCCCCC [C16-KAAK-C16] (HELM PEPTIDE1{[CCCCCCCCCCCCCCCC(=O)[*:2]].K.A.A.K.[CCCCCCCCCCCCCCCCN[*:1]]}$$$$V2.0) ) = 6.01

compound CCCCCCCCCCCCCCCCNC(=O)[C@H](CCCCN)NC(=O)[C@H](C)NC(=O)[C@H](C)NC(=O)[C@H](C)NC(=O)[C@H](CCCCN)NC(=O)CCCCCCCCCCCCCCC [C16-KAAAK-C16] (HELM PEPTIDE1{[CCCCCCCCCCCCCCCC(=O)[*:2]].K.A.A.A.K.[CCCCCCCCCCCCCCCCN[*:1]]}$$$$V2.0) , pKi observed: 5.76

Lab note: measured pKi of CCCCCCCCCCCCCCCCNC(=O)[C@H](CCCCN)NC(=O)[C@H](C)NC(=O)[C@H](C)NC(=O)[C@H](C)NC(=O)[C@H](C)NC(=O)[C@H](CCCCN)NC(=O)CCCCCCCCCCCCCCC [C16-KAAAAK-C16] (HELM PEPTIDE1{[CCCCCCCCCCCCCCCC(=O)[*:2]].K.A.A.A.A.K.[CCCCCCCCCCCCCCCCN[*:1]]}$$$$V2.0) was 5.76

The reported pKi of the compound "CCCCCCCCCCCCCCCCNC(=O)[C@H](CCCCN)NC(=O)[C@H](C)NC(=O)[C@H](CCCCN)NC(=O)CCCCCCCCCCCCCCC" was 6.27
